# assay target: T1, Biotinylated human TSLP (human, biotinylated)
# T1 construct: also called hTSLP; thymic stromal lymphopoietin
# T1 sequence (chain, as listed by the source limits assumed): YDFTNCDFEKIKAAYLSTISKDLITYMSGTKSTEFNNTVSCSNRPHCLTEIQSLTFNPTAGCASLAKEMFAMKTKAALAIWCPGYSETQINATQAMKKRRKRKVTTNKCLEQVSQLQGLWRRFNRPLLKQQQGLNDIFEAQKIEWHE
# measurement notes: SPR, biotinylated hTSLP on streptavidin chip
*1 amine or outer side, *2 acyl side, *3 side chain or, on linkers, in order; H or OH if unused. Bridges are numbered along the chain shown (N, C = ends). Where no end group is shown, it is not given here. TATA = O=C(CC[*:1])N1CN(C(=O)CC[*:2])CN(C(=O)CC[*:3])C1
Quick reference: pKd of the listed items.
API: returns pKd as number; meaning -log10 of concentration in mol/L.

For orientation, consider the following solved cases.
1) RAPCPDLDPWTCSDWWLCA (linker 4-12-18 via TATA) [Example 187] | 7.07
2) Ac-CQWLEDCWRGFCAPDERD (linker 1-7-12 via TATA) [Example 54] | 7.34

Read the next record carefully.
Query :: Quick check: pKd of CTELDXWTCETWWLC (CTELD[Chx-P]WTCETWWLC as printed; 3 Cys on TATA) [Example 195] ?
Result :: 4.82
